Assay: Rodent pharmacokinetic study
Type: in vivo, Male Wistar rats
Settings: male, Wistar, plasma; rat, intravenous (bolus), 1 mg/kg
Decide using clearance alone. Strictly below 7 mL/min/kg: true. Equal to or above 7 mL/min/kg: false.

Take the molecule O=C(N[C@H]1CCCC[C@@H]1O)c1cc(Cc2ccc(-c3cccnc3)cc2)c2cccn2n1 (stereo in doubt) and say whether its clearance is less than 7 mL/min/kg. false

Try this molecule next: "Cn1cc(-c2ccc(Cc3cc(C(=O)NCC4(O)CCCCC4)nn4cccc34)cc2)cn1" false

Try this molecule next: Cn1cc(-c2ccc(Cc3cc(C(=O)N[C@H]4CCOC[C@@H]4O)nn4cccc34)cc2)cn1 (stereo in doubt) true

Try this molecule next: "O=C(NC1CCOCC1)c1cc(Cc2ccc(Cl)cc2)c2cccn2n1" false

Try this molecule next: "O=C(N[C@H]1CCCC[C@@H]1O)c1cc(Cc2ccccc2)c2cccn2n1" false

Try this molecule next: "Cn1cc(-c2ccc(Cc3cc(C(=O)NC4CCOCC4)nn4cccc34)cc2)cn1" true
